biological target: recombinant DYRK1A kinase (Homo sapiens (Human)); experiment: DYRK1A kinase assay (Ser/Thr 18 peptide Z-lyte FRET assay); settings: DYRK1A kinase activity; 15 μM ATP, 1 h room temperature; method text calls the value IC50
pEC50: −log10 of the molar value.
TEST READOUT: pEC50

Consider the worked cases shown below.
c1cc2nc(-c3c[nH]c4nc(NC5CCC6(CC5)COC6)ncc34)ccn2n1    8.64
CNc1nc(N2CC3(CO)CCC2CC3)nc2[nH]cc(-c3ccn4nccc4n3)c12    6.68
CC(C)(C)CNc1ncc2c(-c3ccc4nccnc4c3)c[nH]c2n1    6.93

a: [2H]C([2H])([2H])O[C@H]1CC[C@@H](Nc2nc(OC)c3c(-c4ccc5nccn5c4)c[nH]c3n2)CC1
b: CN1CCC(Nc2ncc3c(-c4ccc5nccnc5c4)c[nH]c3n2)CC1
c: Cc1nc2ccc(-c3c[nH]c4nc(N[C@H]5CC[C@@](C)(O)CC5)ncc34)nc2n1CC(F)F
d: [2H]C([2H])([2H])Oc1nc(N[C@H]2CC[C@@H](OC)CC2)nc2[nH]cc(-c3ccn4nccc4c3)c12
e: CO[C@H]1C[C@@H](Nc2ncc3c(-c4ccn5nccc5n4)c[nH]c3n2)C1
Put the compounds in ascending order of pEC50. Respond with an ordered listing of the labels, as requested.
a, b, c, e, d
(a: 7.55, b: 7.90, c: 8.16, e: 8.54, d: 8.85)
